Source of measurements: PubChem BioAssay

A collection of compounds and their measured inhibition
Target System: Pantothenate synthetase (Mycobacterium tuberculosis (strain ATCC 25618 / H37Rv)) (UniProt P9WIL5)
Sequence (P9WIL5 whole entry, looked up): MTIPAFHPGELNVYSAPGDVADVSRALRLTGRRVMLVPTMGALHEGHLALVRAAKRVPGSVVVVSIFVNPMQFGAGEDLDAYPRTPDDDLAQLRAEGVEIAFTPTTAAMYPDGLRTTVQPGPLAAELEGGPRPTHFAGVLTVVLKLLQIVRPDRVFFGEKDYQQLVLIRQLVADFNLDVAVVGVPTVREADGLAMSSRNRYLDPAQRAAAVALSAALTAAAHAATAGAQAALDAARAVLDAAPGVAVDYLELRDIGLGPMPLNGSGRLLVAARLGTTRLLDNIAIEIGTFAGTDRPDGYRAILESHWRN
Procedure Text: Coupled enzyme confirmation of inhibitors against recombinant Mtb PanC (AID 375);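 also: 0% = full reaction with vehicle and 100% = no enzyme background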
Stated Conditions: coupled enzyme assay; at 10 µM, stronger effect = higher value
Observed Property: inhibition (%)

- Compound: "O=C(O)c1cccc(COCC(F)(F)C(F)F)c1"
  Numeric Readout: 0
- Compound: "O=C(O)c1ccc(COc2c(F)c(F)cc(F)c2F)cc1"
  Numeric Readout: 0
- Compound: "Oc1cccc2ccc(Nc3ccccn3)nc12"
  Numeric Readout: 8
- Compound: "COC(=O)CSc1nc(C)c(C(C)=O)cc1C#N"
  Numeric Readout: 10
- Compound: "Cc1ccc(C)n1-n1c(C)nc2sc(-c3ccccc3)cc2c1=O"
  Numeric Readout: 0
- Compound: "CCOC(=O)N1CCN(C(=O)COc2cc(=O)n(C)c3ccccc23)CC1"
  Numeric Readout: 0
- Compound: "COc1ccc(C2/C(=C(/O)c3cnn(-c4ccccc4)c3C)C(=O)C(=O)N2CCN(C)C)cc1OC (centres undefined)"
  Numeric Readout: 3
- Compound: "CC(C)(C)C(=O)Oc1cc(N)n(S(=O)(=O)c2ccccc2)n1"
  Numeric Readout: 0
- Compound: "COc1ccccc1-n1cnnc1SCC(=O)c1ccc[nH]1"
  Numeric Readout: 3
- Compound: "OCCOCC#CCN1CCOCC1"
  Numeric Readout: 0
- Compound: "Cc1nnc(NC(=O)c2ccccc2F)s1"
  Numeric Readout: 0
- Compound: "CCNC(=O)C1CC(=O)N(Cc2ccc3c(c2)OCO3)C(=Nc2ccc(OCC)cc2)S1 (centres undefined)"
  Numeric Readout: 0
- Compound: "Cc1ccc(C(O)c2nc3ccccc3n2C(C)C)cc1 (centres undefined)"
  Numeric Readout: 0
- Compound: "CCn1cc(C(=O)O)c(=O)c2cc(F)c(N3CCNCC3)nc21"
  Numeric Readout: 6
- Compound: "C(#CCN1CCOCC1)COCC#Cc1ccccc1"
  Numeric Readout: 0
- Compound: "CCCC(CCC)n1[nH]c(=O)c2c(C)cc(C)nc21"
  Numeric Readout: 0
- Compound: "CCOC(=O)CC(C#N)c1cn(C)c2ccccc12 (centres undefined)"
  Numeric Readout: 4
- Compound: "COC(=O)C1=CN(C)C=C(C(=O)OC)C1c1ccc(O)c(OC)c1"
  Numeric Readout: 0
- Compound: "COc1ccc(C(=O)Nc2ccc(S(=O)(=O)NC(C)=O)cc2)cc1"
  Numeric Readout: 0
- Compound: "O=C(C1CCN(S(=O)(=O)c2cnc[nH]2)CC1)N1CCN(c2ncccn2)CC1"
  Numeric Readout: 0
- Compound: "O=C(NCCc1c[nH]c2ccccc12)c1cnc2n(c1=O)CCS2"
  Numeric Readout: 1
- Compound: "Cc1c(C#N)c2ncnc(-c3ccccc3)c2n1-c1ccccc1"
  Numeric Readout: 0
- Compound: "Cc1ccc(NC(=O)COC(=O)c2ccn(C)n2)cc1"
  Numeric Readout: 0
- Compound: "Cn1c(Cc2csc(N)n2)nnc1SCC(=O)NC1CCCCC1"
  Numeric Readout: 4

###

Target System: Pantothenate synthetase (Mycobacterium tuberculosis (strain ATCC 25618 / H37Rv)) (UniProt P9WIL5)
Procedure Text: Coupled enzyme confirmation of inhibitors against recombinant Mtb PanC (AID 375);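 also: 0% = full reaction with vehicle and 100% = no enzyme background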
Stated Conditions: coupled enzyme assay; at 10 µM, stronger effect = higher value
Where a SMILES comes first, the peptide text is derived from it. The star is where a group is joined. Boc = CC(C)(C)OC(=O)*
A collection of molecules and their measured inhibition
Observed Property: inhibition (%)

- Molecule: "COc1ccccc1N(CC(=O)NC1CCCC1)C(=O)CCC(=O)Nc1cc(C)on1"
  Observed Property: "inhibition"
  Numeric Readout: 0
- Molecule: "Cn1c(=O)[nH]c(=O)c2c1nc(N(CCO)Cc1ccccc1)n2Cc1ccccc1Cl"
  Observed Property: "inhibition"
  Numeric Readout: 4
- Molecule: "CCOc1ccc(S(=O)(=O)n2nc(C)cc2C)c2ccccc12"
  Observed Property: "inhibition"
  Numeric Readout: 0
- Molecule: "Cc1ccc(NC2=NC(c3ccccc3)n3c(nc(C)cc3=O)N2)cc1 (centres undefined)"
  Observed Property: "inhibition"
  Numeric Readout: 13
- Molecule: "Cc1ccc(-c2noc(CCC(=O)NCC3CCN(Cc4cccc(C)c4)CC3)n2)cc1"
  Observed Property: "inhibition"
  Numeric Readout: 8
- Molecule: "CC(C)(C)OC(=O)N1CCCC1C(=O)NC(Cc1ccccc1)C(=O)O (stereo not drawn) (Boc-Pro-Phe-OH; configuration not given here)"
  Observed Property: "inhibition"
  Numeric Readout: 4
- Molecule: "CCOC(=O)c1sc(=NC(=O)c2ccc(OC)c(OC)c2)n(C)c1C"
  Observed Property: "inhibition"
  Numeric Readout: 2
- Molecule: "CCC(=O)Nc1c2c(nn1-c1ccccc1C)CSC2"
  Observed Property: "inhibition"
  Numeric Readout: 6
- Molecule: "Cc1cc(C)c2[nH]c(=O)c(C(c3nnnn3Cc3ccc4c(c3)OCO4)N3CCC(C)CC3)cc2c1 (centres undefined)"
  Observed Property: "inhibition"
  Numeric Readout: 0
- Molecule: "Nc1cccc2c1C(=O)N(c1ccccc1)C2=O"
  Observed Property: "inhibition"
  Numeric Readout: 0
- Molecule: "Cc1cc(Cl)c(S(=O)(=O)N2CCN(c3ccc(F)cc3)CC2)cc1OCC(N)=O"
  Observed Property: "inhibition"
  Numeric Readout: 0
- Molecule: "O=C1C2CC=C(Cl)CC2C(=O)N1CNc1ccccn1 (centres undefined)"
  Observed Property: "inhibition"
  Numeric Readout: 0
- Molecule: "CCOC(=O)N1CCN(c2c(N3CCN(c4ccccn4)CC3)c(=O)c2=O)CC1"
  Observed Property: "inhibition"
  Numeric Readout: 0
- Molecule: "COc1ccccc1N(CC(=O)NCc1ccccc1)S(C)(=O)=O"
  Observed Property: "inhibition"
  Numeric Readout: 0
- Molecule: "CCSc1nnc(NC(=O)c2cc(C)oc2C)s1"
  Observed Property: "inhibition"
  Numeric Readout: 11
- Molecule: "C=CCSC1=C(C#N)C(c2ccccc2C)CC(=O)N1 (centres undefined)"
  Observed Property: "inhibition"
  Numeric Readout: 0
- Molecule: "CC(C)CN(CC(C)C)C(=O)C12CCC(C)(C(=O)C1)C2(C)C (centres undefined)"
  Observed Property: "inhibition"
  Numeric Readout: 3
- Molecule: "Cc1nc(C)c(C(=O)C2=C(O)C(=O)N(CCN3CCOCC3)C2c2ccco2)s1 (centres undefined)"
  Observed Property: "inhibition"
  Numeric Readout: 9
- Molecule: "CC(C)[C@H](NC(=O)OC(C)(C)C)c1nnc(SCc2cccc(F)c2)o1"
  Observed Property: "inhibition"
  Numeric Readout: 1
- Molecule: "Cc1oc(-c2ccc(Cl)cc2)nc1CS(=O)CC(=O)NCCCN(C)C1CCCCC1 (centres undefined)"
  Observed Property: "inhibition"
  Numeric Readout: 0
- Molecule: "Cc1nn(CC(O)Cn2c3c(c4ccccc42)CCN(C)C3=O)c(C)c1Br (centres undefined)"
  Observed Property: "inhibition"
  Numeric Readout: 7
- Molecule: "O=C(OCC(=O)N1CCCC1)c1ccccc1OCc1ccccc1"
  Observed Property: "inhibition"
  Numeric Readout: 0
- Molecule: "O=C(NCc1ccc(Cl)cc1)c1ccc(COCC(F)(F)F)o1"
  Observed Property: "inhibition"
  Numeric Readout: 0
- Molecule: "COC(=O)Nc1ccc(NC(C)=O)cc1"
  Observed Property: "inhibition"
  Numeric Readout: 0
- Molecule: "O=C(NCc1ccc2c(c1)OCO2)C1CCC(CNc2c(N3CCCCC3)c(=O)c2=O)CC1 (centres undefined)"
  Observed Property: "inhibition"
  Numeric Readout: 0
- Molecule: "Cc1cc(NC(=O)c2ccccc2)ncc1NC(=O)c1ccco1"
  Observed Property: "inhibition"
  Numeric Readout: 0
- Molecule: "CC(=O)c1cccc(N(CC(=O)N2CCCC2)S(C)(=O)=O)c1"
  Observed Property: "inhibition"
  Numeric Readout: 0
- Molecule: "Cc1ccnc(SCCn2c(N3CCCCC3)nc3c2c(=O)n(C)c(=O)n3C)n1"
  Observed Property: "inhibition"
  Numeric Readout: 0
- Molecule: "Cc1cc(O)c(NC(=O)c2ccc(Br)o2)cc1C"
  Observed Property: "inhibition"
  Numeric Readout: 11
- Molecule: "CSCCC(NC(=O)CCN1C(=O)c2ccccc2C1=O)C(=O)O (centres undefined)"
  Observed Property: "inhibition"
  Numeric Readout: 0
- Molecule: "Cn1c(=O)c2c(nc(SCC(=O)NCc3ccco3)n2C)n(C)c1=O"
  Observed Property: "inhibition"
  Numeric Readout: 0
- Molecule: "CCCCOCCCNC(=O)COc1ccccc1"
  Observed Property: "inhibition"
  Numeric Readout: 1
- Molecule: "CCOc1ccc(NCc2nnc(SCC(=O)Nc3cc(C)on3)n2-c2ccccc2OC)cc1"
  Observed Property: "inhibition"
  Numeric Readout: 13
- Molecule: "Cc1cc(=O)oc(C)c1C(=O)O"
  Observed Property: "inhibition"
  Numeric Readout: 0
